biological target: Alpha-fetoprotein (Rattus norvegicus) (UniProt P02773); experiment: Relative binding affinity for Alphafetoprotein
Sequence (P02773 whole entry): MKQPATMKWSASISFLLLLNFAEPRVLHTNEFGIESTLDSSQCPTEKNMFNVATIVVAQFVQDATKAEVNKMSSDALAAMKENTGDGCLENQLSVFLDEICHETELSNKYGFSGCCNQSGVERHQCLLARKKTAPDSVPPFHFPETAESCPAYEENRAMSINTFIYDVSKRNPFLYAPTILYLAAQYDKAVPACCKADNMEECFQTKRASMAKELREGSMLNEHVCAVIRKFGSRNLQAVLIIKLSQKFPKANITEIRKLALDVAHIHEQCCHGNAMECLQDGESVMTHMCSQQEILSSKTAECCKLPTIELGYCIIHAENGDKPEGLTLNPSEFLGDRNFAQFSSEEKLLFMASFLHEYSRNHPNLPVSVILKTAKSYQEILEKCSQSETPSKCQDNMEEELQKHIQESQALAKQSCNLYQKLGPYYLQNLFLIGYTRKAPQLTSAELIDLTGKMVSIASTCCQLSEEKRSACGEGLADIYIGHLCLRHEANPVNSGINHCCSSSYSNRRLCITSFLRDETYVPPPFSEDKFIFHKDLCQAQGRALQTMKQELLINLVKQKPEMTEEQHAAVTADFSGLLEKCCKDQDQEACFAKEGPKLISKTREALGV
Property name: relative binding affinity (RBA)
Enter the number alone.

Example entries begin here.
C[C@]12CC[C@@H]3c4ccc(O)cc4CC[C@H]3[C@@H]1CC[C@@H]2O | 100
CO[C@H]1C[C@]2(C)[C@@H](O)CC[C@H]2[C@@H]2CCc3cc(O)ccc3[C@H]21 | 0.26
CCC1C[C@]2(C)[C@@H](O)CC[C@H]2[C@@H]2CCc3cc(O)ccc3[C@@H]12 (some centres not stated) | 1.21
C#C[C@]1(O)[C@@H](F)C[C@H]2[C@@H]3CCc4cc(O)ccc4[C@H]3CC[C@@]21C | 22
C#C[C@]1(O)[C@@H](F)C[C@H]2[C@@H]3CCc4cc(O)ccc4[C@H]3[C@@H](CC)C[C@@]21C | 0.147
C#C[C@]1(O)CC[C@H]2[C@@H]3CCc4cc(O)ccc4[C@H]3[C@@H](OC)C[C@@]21C | 0.023

Record CC[C@H]1C[C@]2(C)[C@@H](O)[C@@H](F)C[C@H]2[C@@H]2CCc3cc(O)ccc3[C@@H]12 has Alpha-fetoprotein (Rattus norvegicus) (UniProt P02773) relative binding affinity (RBA) equal to 0.079

Record C#C[C@]1(O)CC[C@H]2[C@@H]3CCc4cc(O)ccc4[C@H]3CC[C@@]21C has Alpha-fetoprotein (Rattus norvegicus) (UniProt P02773) relative binding affinity (RBA) equal to 3.51

Record CO[C@H]1C[C@]2(C)[C@@H](O)[C@@H](F)C[C@H]2[C@@H]2CCc3cc(O)ccc3[C@H]21 has Alpha-fetoprotein (Rattus norvegicus) (UniProt P02773) relative binding affinity (RBA) equal to 0.062

Record C#C[C@]1(O)CC[C@H]2[C@@H]3CCc4cc(O)ccc4[C@H]3C(CC)C[C@@]21C (some centres not stated) has Alpha-fetoprotein (Rattus norvegicus) (UniProt P02773) relative binding affinity (RBA) equal to 0.347

Record C[C@]12CC[C@@H]3c4ccc(O)cc4CC[C@H]3[C@@H]1C[C@H](F)[C@@H]2O has Alpha-fetoprotein (Rattus norvegicus) (UniProt P02773) relative binding affinity (RBA) equal to 20

----------
target: Estrogen receptor (Rattus norvegicus) (UniProt P06211+Q62986)
Listing of recorded BSI by entry.

Example entries begin here.
C[C@]12CC[C@@H]3c4ccc(O)cc4CC[C@H]3[C@@H]1C[C@H](F)[C@@H]2O | 19
C#C[C@]1(O)[C@@H](F)C[C@H]2[C@@H]3CCc4cc(O)ccc4[C@H]3CC[C@@]21C | 27
C#C[C@]1(O)CC[C@H]2[C@@H]3CCc4cc(O)ccc4[C@H]3C(CC)C[C@@]21C (some centres undefined) | 331

Record CC[C@H]1C[C@]2(C)[C@@H](O)[C@@H](F)C[C@H]2[C@@H]2CCc3cc(O)ccc3[C@@H]12 has Estrogen receptor (Rattus norvegicus) (UniProt P06211+Q62986) BSI equal to 158

----------
molecular target: Estrogen receptor (Rattus norvegicus) (UniProt P06211+Q62986)
Property name: NSB
Enter the number alone.

CO[C@H]1C[C@]2(C)[C@@H](O)[C@@H](F)C[C@H]2[C@@H]2CCc3cc(O)ccc3[C@H]21 | 0.39

Record C#C[C@]1(O)CC[C@H]2[C@@H]3CCc4cc(O)ccc4[C@H]3C(CC)C[C@@]21C (some centres undefined) has Estrogen receptor (Rattus norvegicus) (UniProt P06211+Q62986) NSB equal to 2.86

Record C#C[C@]1(O)[C@@H](F)C[C@H]2[C@@H]3CCc4cc(O)ccc4[C@H]3CC[C@@]21C has Estrogen receptor (Rattus norvegicus) (UniProt P06211+Q62986) NSB equal to 1.04

Record C#C[C@]1(O)[C@@H](F)C[C@H]2[C@@H]3CCc4cc(O)ccc4[C@H]3[C@@H](CC)C[C@@]21C has Estrogen receptor (Rattus norvegicus) (UniProt P06211+Q62986) NSB equal to 2.43

// provenance: ChEMBL document CHEMBL1126705
